This section presents binders with their documented fold activation, T-cell proliferation, 22 nM, non-anchored, mean values.
Target: T1, human GITR (amino acids M1-V241, NCBI Accession #NP_004186.1) expressed on cells (human, UniProt Q9Y5U5 26-241)
T1 sequence: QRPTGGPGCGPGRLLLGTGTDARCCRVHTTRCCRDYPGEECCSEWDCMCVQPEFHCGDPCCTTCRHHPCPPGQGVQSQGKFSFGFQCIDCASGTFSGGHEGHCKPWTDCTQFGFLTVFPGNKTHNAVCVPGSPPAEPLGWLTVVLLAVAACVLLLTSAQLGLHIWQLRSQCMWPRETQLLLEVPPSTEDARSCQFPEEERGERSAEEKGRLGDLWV
Assay: cell-based or functional assay
Report as a plain number; the unit fold is understood.

Example cases with answers are listed next.
binder: H4H14525P (antibody, human IgG4, V domains shown, human IgG4 (H4H)) VH: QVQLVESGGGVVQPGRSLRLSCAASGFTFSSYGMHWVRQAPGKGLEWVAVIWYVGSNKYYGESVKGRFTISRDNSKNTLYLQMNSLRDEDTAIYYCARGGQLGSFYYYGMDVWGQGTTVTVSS VL: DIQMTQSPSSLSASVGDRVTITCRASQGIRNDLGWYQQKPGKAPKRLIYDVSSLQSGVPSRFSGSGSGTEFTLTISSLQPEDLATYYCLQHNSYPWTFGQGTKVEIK
unit-name: fold
quantitative-readout: 0.9
--
binder: H4H14475P (antibody, human IgG4, V domains shown, human IgG4 (H4H)) VH: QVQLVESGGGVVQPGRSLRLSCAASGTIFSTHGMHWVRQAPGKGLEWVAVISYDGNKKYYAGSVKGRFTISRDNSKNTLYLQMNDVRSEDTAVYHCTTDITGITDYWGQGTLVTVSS VL: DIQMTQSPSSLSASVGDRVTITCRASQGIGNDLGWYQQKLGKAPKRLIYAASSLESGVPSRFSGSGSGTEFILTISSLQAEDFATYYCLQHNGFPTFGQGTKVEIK
unit-name: fold
quantitative-readout: 0.9
--
binder: H4H14528P (antibody, human IgG4, V domains shown, human IgG4 (H4H)) VH: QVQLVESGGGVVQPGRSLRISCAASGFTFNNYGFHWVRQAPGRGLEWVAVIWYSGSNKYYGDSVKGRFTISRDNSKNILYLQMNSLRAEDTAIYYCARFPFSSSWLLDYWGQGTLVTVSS VL: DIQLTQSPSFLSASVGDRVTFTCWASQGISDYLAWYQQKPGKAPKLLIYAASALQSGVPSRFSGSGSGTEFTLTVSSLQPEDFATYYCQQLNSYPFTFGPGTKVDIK
unit-name: fold
quantitative-readout: 0.8

Req: // returns reported fold activation, T-cell proliferation, 22 nM, non-anchored, mean for input H4H14469P (antibody, human IgG4, V domains shown, human IgG4 (H4H)) VH: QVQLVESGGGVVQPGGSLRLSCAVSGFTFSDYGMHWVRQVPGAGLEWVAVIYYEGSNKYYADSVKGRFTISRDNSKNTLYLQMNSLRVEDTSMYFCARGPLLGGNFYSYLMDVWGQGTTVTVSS VL: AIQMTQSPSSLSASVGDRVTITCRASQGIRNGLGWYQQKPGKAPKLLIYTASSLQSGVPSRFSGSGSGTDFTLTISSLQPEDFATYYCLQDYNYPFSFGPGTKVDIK
Resp: 0.9

Req: Here is the next binder: H4H14521P (antibody, human IgG4, V domains shown, human IgG4 (H4H)) VH: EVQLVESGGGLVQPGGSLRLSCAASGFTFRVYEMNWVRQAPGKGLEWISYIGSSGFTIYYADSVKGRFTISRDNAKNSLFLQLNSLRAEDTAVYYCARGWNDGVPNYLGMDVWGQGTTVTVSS VL: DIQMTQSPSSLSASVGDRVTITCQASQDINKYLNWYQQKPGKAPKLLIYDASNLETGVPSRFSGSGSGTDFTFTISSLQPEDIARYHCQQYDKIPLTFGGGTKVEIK
Resp: 0.9

Req: Here is the next binder: H4H14508P (antibody, human IgG4, V domains shown, human IgG4 (H4H)) VH: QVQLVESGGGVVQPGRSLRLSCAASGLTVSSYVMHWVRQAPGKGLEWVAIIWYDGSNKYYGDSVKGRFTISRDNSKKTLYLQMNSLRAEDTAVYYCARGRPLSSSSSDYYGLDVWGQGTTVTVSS VL: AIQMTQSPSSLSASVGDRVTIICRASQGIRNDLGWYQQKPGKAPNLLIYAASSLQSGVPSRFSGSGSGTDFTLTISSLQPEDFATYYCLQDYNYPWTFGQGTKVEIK
Resp: 1
